test system: KM12 colon; test: NCI-60 one-dose screen, 48 h (100 = growth as untreated, 0 = no growth, -100 = all killed); details: 10 µM unless noted
Compounds without any hit were thinned out: in the full panel of roughly 83,000, 20% have a hit. Activity calls are given as the source filed them. The calls were made as follows: active = growth percent below 10; inactive = the rest.
Below, each entry is listed alongside its reported growth.

Some compounds with known growth results, for comparison:
CC/C(Cc1ccccc1)=C(\c1ccc(OCCCN(C)C)cc1)c1ccc(OC(=O)NCc2ccccc2)cc1 = 72.8% (inactive)
O=C1Nc2ccccc2/C1=C\c1c[nH]c2ccc(Br)cc12 = 12.9% (inactive)
CC(=O)/C(=C/c1ccc([N+](=O)[O-])cc1)C(=O)c1ccccc1 = 58.9% (inactive)
CCCCCN(CCCCC)CC(O)c1cc(C)c2ccc3cc(C(C)C)ccc3c2c1 (centres undefined) = -64.7% (active)
Cn1cc(-c2nn3cc(-c4cccs4)nc3s2)c2cc(F)ccc21 = 22.2% (inactive)

Consider the record given below.
Entry `Nc1nc(N)c(N=Nc2ccccc2)c(-c2ccccc2)n1` — recorded growth = 33.4% (inactive)

----------
Below, each entry is listed alongside its reported growth.
system: A549/ATCC NSCLC; test: NCI-60 one-dose screen, 48 h (100 = growth as untreated, 0 = no growth, -100 = all killed); settings: 10 µM unless noted
The panel holds about 83,000 compounds, 20% with a hit somewhere; the sample as a whole holds those more often.
Lab book: enter the figure in %, no units written.

Entry `CC/C=C\CCC/C=C1/C(=O)C=C[C@@H]1C/C=C\CCCC(=O)OC` — recorded growth = 79

Entry `Cc1nn(-c2ccccc2)c(N)c1N=C1NC(=O)/C(=C/c2ccc(Br)cc2)S1` — recorded growth = 74.3

Entry `CN1CCN(c2ccc(NC(=O)c3cncnc3Nc3ccc(OCc4cccc(F)c4)c(Cl)c3)cc2)CC1` — recorded growth = 57

Entry `COc1ccc(C(=O)c2cc3c(N)c(C(=O)Nc4ccccc4)sc3nc2C)cc1` — recorded growth = 31.1

Entry `C=CCn1c(SCC(=O)Nc2ccc(/C(C)=N/O)cc2)nnc1-c1cc(-c2ccc(S(N)(=O)=O)cc2)nc2ccccc12` — recorded growth = 110

----------
test system: SK-MEL-5 melanoma; experiment: NCI-60 one-dose screen, 48 h (100 = growth as untreated, 0 = no growth, -100 = all killed); conditions: 10 µM unless noted
This is part of a sample that, as a whole, favours compounds with a hit. Of some 83,000 tested, about 20% had one in any assay.
// assign Met if growth falls strictly below 30%, else Not met (ties count as Not met)

Worked set:
CNC(=O)c1cc(Oc2cccc3nc(NC(=O)Nc4cc(C(F)(F)F)ccc4Cl)ccc23)ccn1 = Not met
C=C(C)[C@@H]1CC[C@]2(C)[C@H](CC=C3[C@@H]4CC(C)(C)CC[C@]4(CO)CC[C@]32C)[C@@]1(C)CCCN = Not met
Cc1ccc(-c2nc3nc(-c4ccccc4)nc(N4CCCN(S(C)(=O)=O)CC4)c3o2)cc1 = Not met
O=c1c2ccccc2c(=O)c2c1sc1c(=O)c3ccc(O)cc3c(=O)c12 = Met

q: Dear reviewer, please state whether `Cc1cccc(N2CCC(=O)NC2=S)c1` has growth strictly beneath 30%.
a: Not met

q: Dear reviewer, please state whether `CCN(CC)CCN1C(=O)c2cccc3c(/C=C/CN4C(=O)c5cccc6cccc(c56)C4=O)ccc(c23)C1=O` has growth strictly beneath 30%.
a: Not met

q: Dear reviewer, please state whether `CCN(CC)CCCOc1ccc2ncnc(Nc3ccc(Oc4cccc(C(F)(F)F)c4)c(Cl)c3)c2c1` has growth strictly beneath 30%.
a: Met

q: Dear reviewer, please state whether `CCOc1cccc(/C=N/NC(=O)c2cccc(Nc3ccnc(C(F)(F)F)c3)c2)c1O` has growth strictly beneath 30%.
a: Not met

q: Dear reviewer, please state whether `COc1ccc2c(c1)CCc1[nH]nc(-c3cc(OC)c(OC)c(OC)c3)c1-2` has growth strictly beneath 30%.
a: Met
